The measurements presented in this section are drawn from the PolyMetriX glass transition set.

Entries whose glass transition temperature is below 90 °C take yes; entries at or above 90 °C take no.

Answered cases to consult:
compound	assignedCategory
*Oc1ccc(S(=O)(=O)c2cccc3c(S(=O)(=O)c4ccc(Oc5ccc(-c6ccc(*)cc6)cc5)cc4)cccc23)cc1 (repeat unit)	no
*CCCCCCNC(=O)CCP(=O)(CCC(=O)N*)c1ccccc1 (repeat unit)	yes
*c1ccc(Oc2ccc3ccc(Oc4ccc(N5C(=O)CC(=O)N(*)C5=S)cc4)cc3c2)cc1 (repeat unit)	no
*Sc1c(C)cc(*)cc1C (repeat unit)	no
*Oc1ccc(OC(=O)c2cc(OCCCCCCCCCCC(F)(F)C(F)(F)C(F)(F)C(F)(F)C(F)(F)C(F)(F)C(F)(F)C(F)(F)C(F)(F)C(F)(F)F)cc(C(*)=O)c2)cc1 (repeat unit)	no
*Sc1ccc(C(=O)c2ccc(C(C)(C)c3ccc(C(=O)c4ccc(*)cc4)cc3)cc2)cc1 (repeat unit)	no

Here's an entry: *CC(=O)NCCCCCCNC(=O)CC1COC(*)CO1 (repeat unit) . Is its glass transition temperature below 90 °C?
yes

Here's an entry: *C(=O)c1cc(C(=O)c2ccc3c(c2)C(=O)N(c2cccc(N4C(=O)c5ccc(*)cc5C4=O)c2)C3=O)cc(-c2ccccc2)c1 (repeat unit) . Is its glass transition temperature below 90 °C?
no

Here's an entry: *C(=O)Nc1ccc(Oc2ccc(-c3ccc(Oc4ccc(NC(=O)c5ccc6c(c5)C(=O)N(c5ccc(Oc7ccc(S(=O)(=O)c8ccc(Oc9ccc(N%10C(=O)c%11ccc(*)cc%11C%10=O)cc9)cc8)cc7)cc5)C6=O)cc4)cc3)cc2)cc1 (repeat unit) . Is its glass transition temperature below 90 °C?
no

Here's an entry: *CCCCCOc1ccc(C(=O)OC(=O)c2ccc(O*)cc2)cc1 (repeat unit) . Is its glass transition temperature below 90 °C?
yes

Here's an entry: *CCCCCCOC(=O)O* (repeat unit) . Is its glass transition temperature below 90 °C?
yes

Here's an entry: *c1cccc(S(=O)(=O)NCCCCCNS(*)(=O)=O)c1 (repeat unit) . Is its glass transition temperature below 90 °C?
yes

----------
glass transition temperature values by entry
Field format: number, assumed °C, no unit text.

Below, 2 compounds whose answers are already recorded.
compound	glass transition temperature (°C)
*c1cccc(P(=O)(c2ccc(C(F)(F)F)cc2)c2cccc(-n3c(=O)c4cc5c(=O)n(*)c(=O)c5cc4c3=O)c2)c1 (repeat unit)	311.00
*CC(O)COc1ccc(Cc2ccc(O*)cc2)cc1 (repeat unit)	143.20

Return glass transition temperature (reported value) for this compound: *CCOC(=O)c1ccc(-c2ccc(C(=O)O*)cc2C)c(C)c1 (repeat unit)
73.00

----------
glass transition temperature values by entry
Field format: number, assumed °C, no unit text.

Return glass transition temperature (reported value) for this molecule: *CC(*)(C)C(=O)OC(C)CC (repeat unit) [Poly(sec-butyl methacrylate)]
57

Return glass transition temperature (reported value) for this molecule: *CCCc1ccc(-c2c(-c3ccccc3)cc(-c3cccc(-c4cc(-c5ccccc5)c(-c5ccc(*)cc5)c(-c5ccccc5)c4-c4ccccc4)c3)c(-c3ccccc3)c2-c2ccccc2)cc1 (repeat unit)
240.00

Return glass transition temperature (reported value) for this molecule: *C(=O)Nc1cc(C(c2cc(C)c(C)c(NC(=O)c3ccc4c(c3)C(=O)N(c3cccc5c(N6C(=O)c7ccc(*)cc7C6=O)cccc35)C4=O)c2)(C(F)(F)F)C(F)(F)F)cc(C)c1C (repeat unit)
250.00

Return glass transition temperature (reported value) for this molecule: *Nc1ccc(NC(=O)c2ccc(NC(=O)CCCCCCC(=O)Nc3ccc(C(*)=O)cc3)cc2)cc1C(=O)OCCCCCCCCCCCCCCCCCC (repeat unit)
305.00

Return glass transition temperature (reported value) for this molecule: *Oc1ccc(OC(=O)c2ccc(C(*)=O)cc2Sc2ccccc2)cc1C (repeat unit)
130.00

----------
parameter: glass transition temperature (°C)
Field format: number, assumed °C, no unit text.

Below, 3 compounds whose answers are already recorded.
compound	parameter	quantitativeReadout
*c1ccc2c(c1)Cc1cc(-n3c(=O)c4cc5c(=O)n(*)c(=O)c5cc4c3=O)ccc1-2 (repeat unit)	glass transition temperature	322.00
*CC(*)c1ccc(C(=O)CCN2CCOCC2)cc1 (repeat unit)	glass transition temperature	41.00
*C(=O)Nc1ccc2c(c1)Cc1cc(NC(=O)c3ccc4c(c3)C(=O)N(c3ccc(NC(=O)Nc5ccc(N6C(=O)c7ccc(*)cc7C6=O)cc5)cc3)C4=O)ccc1-2 (repeat unit)	glass transition temperature	224.00

Return glass transition temperature (reported value) for this compound: *CCCCCCCCCCCCNC(=O)CCCCCCCCCCCCCCCCCCC(=O)N* (repeat unit)
221.60

Return glass transition temperature (reported value) for this compound: *c1ccc(-c2cc(-c3ccccc3)c3cc(-c4ccc5nc(*)cc(-c6ccccc6)c5c4)ccc3n2)cc1 (repeat unit)
395.00

Return glass transition temperature (reported value) for this compound: *CCCCCCOC(=O)OCCCCOC(=O)OCCCCCCOc1ccc(C(=O)c2ccc(O*)cc2)cc1 (repeat unit)
2.10

Return glass transition temperature (reported value) for this compound: */C(=C(/*)c1ccc([Si](C)(C)C)cc1)c1ccccc1 (repeat unit)
200.00

Return glass transition temperature (reported value) for this compound: *c1ccc(C(C)(C)c2ccc(C(C)(C)c3ccc(N4C(=O)c5ccc(Oc6cccc7c(Oc8ccc9c(c8)C(=O)N(*)C9=O)cccc67)cc5C4=O)cc3)cc2)cc1 (repeat unit)
253.00

----------
Definition: the class of an entry is the range in lower bin (below 100 °C), middle bin (100 °C to below 200 °C), upper bin (200 °C or more) that contains its glass transition temperature.

Answered cases to consult:
compound	assignedCategory
*Oc1ccc(Oc2ccc(/C=N/c3ccc(/N=C/c4ccc(*)cc4)cc3)cc2)cc1 (repeat unit)	middle bin
*c1ccc(Oc2ccc(C(=O)c3ccc(Oc4ccc(C(=O)c5ccc(Oc6ccc(-c7nc(-c8ccccc8)[nH]c7*)cc6)cc5)cc4)cc3)cc2)cc1 (repeat unit)	upper bin
*CC(O)COc1ccc(C(C)(C)c2ccc(OCC(O)COc3ccc(C4(c5ccc(O*)cc5)c5ccccc5-c5ccccc54)cc3)cc2)cc1 (repeat unit)	middle bin
*CC(*)c1nnn[nH]1 (repeat unit)	lower bin
*CC(*)(F)C(=O)OCCC(F)(F)C(F)(F)C(F)(F)C(F)(F)C(F)(F)C(F)(F)F (repeat unit)	lower bin
*c1ccc2oc(-c3cccc(-c4nc5cc(C(*)(C(F)(F)F)C(F)(F)F)ccc5o4)n3)nc2c1 (repeat unit)	upper bin
*CCCCOC(=O)c1ccc2cc(C(=O)O*)ccc2c1 (repeat unit)	lower bin
*CC1CC2CC1C1CCC(CN3C(=O)c4ccc(C(=O)c5ccc6c(c5)C(=O)N(*)C6=O)cc4C3=O)C21 (repeat unit)	upper bin
*CC(*)c1cc(C(=O)OCC)ccc1-c1ccc(OCCCCCCCC)cc1 (repeat unit)	lower bin
*Oc1ccc(/C=N/N=C/c2ccc(Oc3ccc(C(C)(C)c4ccc(*)cc4)cc3)cc2)cc1 (repeat unit)	middle bin

Input *Oc1ccc(NC(=O)CCCCC(=O)Nc2ccc(OC3COC4C(*)COC34)cc2)cc1 (repeat unit) ; output its category
middle bin

Input *c1ccc(Oc2cccc(Oc3ccc(N4C(=O)c5ccc(Oc6cccc(Oc7ccc8c(c7)C(=O)N(*)C8=O)c6)cc5C4=O)cc3)c2)cc1 (repeat unit) ; output its category
middle bin

Input *Oc1ccc(NCC(=O)c2ccc(Sc3ccc(C(=O)CNc4ccc(*)cc4)cc3)cc2)cc1 (repeat unit) ; output its category
upper bin

Input *O[Si](*)(C)CCCC(=O)OCCCC (repeat unit) ; output its category
lower bin

Input *O[Si](C)(C)c1ccc2ccc3c([Si](*)(C)C)ccc4ccc1c2c43 (repeat unit) ; output its category
lower bin

Input *Oc1ccc(S(=O)(=O)c2ccc(OC3(F)C(*)(F)C(F)(F)C3(F)F)cc2)cc1 (repeat unit) ; output its category
middle bin

----------
Entries whose glass transition temperature is below 100 °C take true; entries at or above 100 °C take false.

molecule	assignedCategory
*C(=O)Nc1ccc(Oc2ccc(Oc3ccc(NC(=O)c4ccc5c(c4)C(=O)N(c4ccc(S(=O)(=O)c6ccc(N7C(=O)c8ccc(*)cc8C7=O)cc6)cc4)C5=O)cc3)cc2)cc1 (repeat unit)	false

Let's switch to this molecule now.
Here's an entry: *CC#CCOC(=O)CCCCCCCCCCC(=O)O* (repeat unit) . Is its glass transition temperature below 100 °C?
true

----------
Entries whose glass transition temperature is below 100 °C take 1; entries at or above 100 °C take -1.

Here's an entry: *Nc1ccc(Cc2ccc(NC(=O)Nc3ccccc3CCc3ccc(NC(*)=O)cc3)cc2)cc1 (repeat unit) . Is its glass transition temperature below 100 °C?
-1

Here's an entry: *CC(*)C(=O)Nc1ccc(C(=O)/C=C/c2cccc(Br)c2)cc1 (repeat unit) . Is its glass transition temperature below 100 °C?
1

Here's an entry: *CC(*)OCCCCCC (repeat unit) . Is its glass transition temperature below 100 °C?
1
